Value source: ChEMBL document CHEMBL2218924

Molecular target: MAP kinase-activated protein kinase 3 (Homo sapiens)
Settings: at 10 µM
measurement kind: residual activity (%)
Numbers only; they are read as %.

Solved entries:
O=C1NC(=O)c2c1c1c3ccccc3[nH]c1c1[nH]c3cc(Br)ccc3c21 : 89
O=C(Nc1cccc(Nc2cc(Nc3cccc(C(F)(F)F)c3)ncn2)c1)C1CC1 : 91
O=C1NC(=O)/C(=C\c2ccc3nccnc3c2)S1 : 91
CN(C)CCCn1cc(C2=C(c3c[nH]c4ccccc34)C(=O)NC2=O)c2ccccc21 : 109

// residual activity lookup, key: "Cc1ccc(S(=O)(=O)/C=C/C#N)cc1"
85

Let us now turn to "COc1ccc(CNc2nc(N(CCO)CCO)nc3c2ncn3C(C)C)cc1"
98

Next: "Nc1n[nH]c2nnc(-c3c(-c4ccccc4)nn4ccccc34)cc12"
93

What do you have for "CNc1cc2c(Nc3cccc(Br)c3)ncnc2cn1" ?
99

And for "CC(C)n1cnc2/c(=N/c3cccc(Cl)c3)nc(NCCO)[nH]c21" ?
116

Also "Cc1cc2ncc(-c3ccccc3)nc2cc1C" , if possible.
93

Next: "CC(C)n1cnc2c(NCc3ccccc3)nc(NCCCO)nc21"
80
